# methodDescription: Apparent aqueous solubility of drug in 1% polymer solution (30 min standing, centrifugation, HPLC of supernatant)
# Type: physicochemical
# cond: water without polymer; reference value for the increase; read-out: aqueous probucol solubility
observable: solubility at 30 min (µg/mL)
Quick note: give the figure in µg/mL, leave out the unit.

IN: Quick check: solubility at 30 min of CC(C)(Sc1cc(C(C)(C)C)c(O)c(C(C)(C)C)c1)Sc1cc(C(C)(C)C)c(O)c(C(C)(C)C)c1 [control, Probucol] ?
OUT: 0.042
